Values were extracted from PubChem BioAssay.

Test: RAM signaling pathway blockade in yeast – S. cerevisiae, Pdr1DBD-CYC8 efflux-inhibited sensitized strain, primary screen (AID 1298);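 note: 0% = DMSO untreated cells without growth and 100% = 10 µM 1-NA-PP1 full growth; higher means more yeast growth rescued from 5-FOA killing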
Details: S. cerevisiae cbk1-as DSE1-URA3 strain, 5-FOA growth OD615, 2 d; at 50 µM; hits give high values
reported_endpoint: RAM network inhibition (%)

INSERT INTO measurements (molecule, result) VALUES
  ('Brc1ccccc1Cn1c(-c2cncs2)nc2ccccc21', 3.2),
  ('COc1ccc(N2C(=O)C(CC(=O)O)S/C2=C\C(C)=O)cc1 (stereo unspecified)', 3.43),
  ('CC(=O)N1CCC(N(CCN2CCOCC2)C(=O)Nc2ccc(Cl)c(Cl)c2)CC1', 1.45),
  ('CC(C)=CC1C(C(=O)Nc2ccc(Br)cn2)C1(C)C (stereo unspecified)', 4.66),
  ('CCCn1cnc2cc(NCc3ccccn3)ccc21', -2.3),
  ('O=C(NCc1ccccn1)Nc1cccc(Cl)c1', 2.46),
  ('CCCn1c(CCNC(=O)c2cccs2)nc2ccccc21', 4.94),
  ('CCCC(=O)N(Cc1cc2cc(C)ccc2[nH]c1=O)c1ccccc1OC', 9.81),
  ('Cc1cccc(CSc2nnc(-c3ccccn3)n2N)c1', 0.89),
  ('Cc1ccc(S(=O)(=O)c2nc(S(C)(=O)=O)sc2N(C)C)cc1', 2.51),
  ('Cn1c(=O)c2c(SCC(=O)N3CCN(c4ccccc4)CC3)nc(C3CC3)nc2n(C)c1=O', 6.69);

* * *

Experiment: viability gain of MRP-1-high H69AR cells under doxorubicin, pilot screen, MRP-1 activator project, CellTiter-Glo, duplicate (AID 807);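 note: compound pretreatment 18-22 h then 72 h combined with doxorubicin; 0% = doxorubicin alone and 100% = vehicle without doxorubicin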
Details: H69AR viability with doxorubicin, CellTiter-Glo luminescence; at 10 µM; hits give high values
reported_endpoint: viability increase (%)

INSERT INTO assay_data (compound, reported_endpoint, output_unit, result) VALUES
  ('CC(=O)c1ccc(-n2nncc2C(C)(C)C)cc1', 'viability increase', '%', -0.85),
  ('COCCNC(=O)c1cc2c(-c3ccc(Cl)cc3)nn(C)c2s1', 'viability increase', '%', -6),
  ('CCn1c(CNC(=O)COC)nc2ccccc21', 'viability increase', '%', 0.97),
  ('C=C(C)CSc1nnc(-c2cc(OC)c(OC)c(OC)c2)n1N', 'viability increase', '%', -1.01),
  ('CN(C)c1nc(N)nc(N(c2ccccc2)c2ccccc2)n1', 'viability increase', '%', -2.5),
  ('Cn1c(C(=O)NCCCN2CCN(c3cccc(Cl)c3)CC2)cc2c(=O)n(C)c3ccccc3c21', 'viability increase', '%', -2.92),
  ('COc1cccc(N2CCN(C3CC(=O)N(c4ccc(Cl)cc4)C3=O)CC2)c1 (stereo unspecified)', 'viability increase', '%', -0.33),
  ('CCOc1ccc(C(=O)c2nc3c(n2O)CCCC3)cc1', 'viability increase', '%', 0.17),
  ('CCN1CCN(CCNC(=O)CS(=O)(=O)Cc2nc(-c3ccc(C)cc3)oc2C)CC1', 'viability increase', '%', 0.44),
  ('N=c1sccn1CC(=O)Nc1ccccc1-c1ccccc1', 'viability increase', '%', -2.08),
  ('Cc1cccc(NC(=O)CN2C(=O)COc3ccc(Cl)cc32)c1C', 'viability increase', '%', -0.9);

* * *

Below, each of the compounds is paired with its reported growth inhibition value.
Test: OD615 S. cerevisiae growth inhibition, permissive medium, pilot counter-assay, permissive growth control for S. cerevisiae lifespan shortening project (AID 705)
Details: OD615, 24 h, at 10 µM, hits give high values
reported_endpoint: growth inhibition (%)

INSERT INTO measurements (compound, output_unit, result) VALUES
  ('CC1CCCN(C(=O)C2CCN(S(=O)(=O)c3cccc4cccnc34)CC2)C1 (stereo unspecified)', '%', 1.07),
  ('Cn1c(=O)oc2cc(S(=O)(=O)NC(Cc3ccccc3)C(=O)N3CCCCC3)ccc21 (stereo unspecified)', '%', -6.13),
  ('COc1ccccc1C(=O)Nc1nnc(-c2ccc(F)cc2)o1', '%', -8.41),
  ('COc1ccc(C2CC(C(F)(F)F)n3ncc(C(=O)O)c3N2)cc1OC (stereo unspecified)', '%', -0.77),
  ('Cc1nc2sc(C(c3ccco3)N3CCC(C)CC3)c(O)n2n1 (stereo unspecified)', '%', -6.81),
  ('O=C(NCc1ccccc1)c1ccc2c(c1)OCCO2', '%', 3.26),
  ('Cc1cccc(NC(=O)Nc2ccc(C#N)cc2)n1', '%', -15.2),
  ('CCn1ncc(C2=NOC(C(=O)Nc3c(C)n(C)n(-c4ccccc4)c3=O)C2)c1C (stereo unspecified)', '%', -7.05),
  ('CCOC(=O)c1ccn(-c2nc(-c3ccco3)cc(C(F)(F)F)n2)n1', '%', -8.11),
  ('Nc1ccc(OCc2ccccc2)cc1', '%', -14.4),
  ('C=CC1C(N2CCOCC2)C(C)(C)S1(=O)=O (stereo unspecified)', '%', 4.78);

* * *

Test: RAM signaling pathway blockade in yeast – S. cerevisiae, Pdr1DBD-CYC8 efflux-inhibited sensitized strain, primary screen (AID 1298);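 note: 0% = DMSO untreated cells without growth and 100% = 10 µM 1-NA-PP1 full growth; higher means more yeast growth rescued from 5-FOA killing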
Settings: S. cerevisiae cbk1-as DSE1-URA3 strain, 5-FOA growth OD615, 2 d; at 50 µM; hits give high values
Below, each of the compounds is paired with its reported RAM network inhibition value.
reported_endpoint: RAM network inhibition (%)

INSERT INTO assay_data (compound, result) VALUES
  ('CCN1CCN(Cc2ccc(NC(=O)Nc3ccc(OC)cc3)cc2)CC1', 1.09),
  ('CCn1c(SCC(=O)N2CCN(c3ccccc3)CC2)nc2c(c1=O)SC(C)C2 (stereo unspecified)', 2.11),
  ('O=C(COc1cc(=O)n2c(n1)SCCC2)c1ccccc1', 1.89),
  ('CC(=O)c1ccc(-n2nncc2C(C)(C)C)cc1', 0.78),
  ('C=CCn1c(CSc2nc3ccccc3s2)nnc1SCC(=O)OCC', 9.66),
  ('O=C(CCc1nc2ccccc2[nH]1)NCc1ccc2c(c1)OCO2', 1.84),
  ('CCOCCCNC(=O)CN1C(=O)CSc2ccccc21', 2.6),
  ('O=C1CCCCC(=O)N(c2ccccc2)c2ccccc21', 5.34),
  ('COc1ccc(C)c(S(=O)(=O)Nc2ccc(OCC(=O)O)cc2)c1', -1.4),
  ('CCCc1nc(SCC(=O)NCc2ccc3c(c2)OCO3)c2c(=O)n(C)c(=O)n(C)c2n1', 5.66),
  ('O=C(Nc1nccs1)c1cc(S(=O)(=O)N2CCOCC2)ccc1Cl', 4.18);

* * *

Experiment: OD615 S. cerevisiae growth inhibition, permissive medium, pilot counter-assay, permissive growth control for S. cerevisiae lifespan shortening project (AID 705)
Conditions: OD615, 24 h, at 10 µM, hits give high values
The source made the active and inactive calls.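 The calls were made as follows: active = growth inhibition above 25% in both replicates, a cutoff set 3 SD above the mean; inconclusive = above 25% in only one replicate; inactive = the rest.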
reported_endpoint: growth inhibition

INSERT INTO results (compound, reported_endpoint, result) VALUES
  ('COc1ccc(Cc2nnc(SC)[nH]c2=O)cc1OC', 'growth inhibition', '0.615% (inactive)'),
  ('Fc1ccc(Cc2nnc(-c3cccs3)o2)cc1', 'growth inhibition', '-20.1% (inactive)'),
  ('COc1ccc(C2C3=C(CC(c4ccco4)CC3=O)Nc3ccccc3N2C(C)=O)cc1 (stereo unspecified)', 'growth inhibition', '-19% (inactive)'),
  ('CCC(CO)N=CC1=C(O)CC(C)(C)CC1=O (stereo unspecified)', 'growth inhibition', '3.97% (inactive)'),
  ('CCCOC(=O)C1=C(C)NC2=C(C(=O)CC(C)(C)C2)C1c1ccc(N(C)C)cc1 (stereo unspecified)', 'growth inhibition', '-2.65% (inactive)'),
  ('CCOC(=O)N1CCc2c(sc(NC(C)=O)c2C(N)=O)C1', 'growth inhibition', '-5.06% (inactive)'),
  ('CCOc1ccccc1NC(=O)C1Cc2ccccc2CN1S(C)(=O)=O (stereo unspecified)', 'growth inhibition', '-8.32% (inactive)'),
  ('N#CC1=C(c2ccccc2)N=P(N2CCOCC2)(N2CCOCC2)N=C1N1CCOCC1', 'growth inhibition', '-6.26% (inactive)'),
  ('CCOC(=O)c1ccc(NC(=O)NS(=O)(=O)c2ccc(C)cc2)cc1', 'growth inhibition', '-7.83% (inactive)'),
  ('Oc1ccccc1CNc1nc2ccccc2n1CCN1CCCCC1', 'growth inhibition', '-15.8% (inactive)'),
  ('Cc1[nH]c(C)c2c(=O)n(-c3ccccc3)ncc12', 'growth inhibition', '-19.9% (inactive)');

* * *

Test: viability gain of MRP-1-high H69AR cells under doxorubicin, pilot screen, MRP-1 activator project, CellTiter-Glo, duplicate (AID 807);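 note: compound pretreatment 18-22 h then 72 h combined with doxorubicin; 0% = doxorubicin alone and 100% = vehicle without doxorubicin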
Conditions: H69AR viability with doxorubicin, CellTiter-Glo luminescence; at 10 µM; hits give high values
Below, each of the compounds is paired with its reported viability increase value.
reported_endpoint: viability increase (%)

INSERT INTO results (compound, output_unit, result) VALUES
  ('Cn1c(=O)c2c(nc(N3CCCCCC3)n2CCSc2nc3ccccc3o2)n(C)c1=O', '%', -6.62),
  ('COc1ccc(C2C(C(N)=O)=C(C)Nc3nc(-c4ccccc4Cl)nn32)c(OC)c1 (stereo not drawn)', '%', -0.07),
  ('CCc1nnc(NC(=O)c2ccc(OC)cc2OC)s1', '%', -1.32),
  ('Cc1ccc2c(c1)C1(C(=O)N2C)N2CC3(C)CN1CC(C)(C2)C3=O (stereo not drawn)', '%', -2.2),
  ('CC(C)CCNC(=O)Cn1cc2c(n1)CCCCC2', '%', -1.8),
  ('CCN(CC)C(=O)c1cc2sc3ccccc3c2s1', '%', 0.41),
  ('Cc1cc(NCc2ccco2)nc2cc(O)ccc12', '%', -5.57),
  ('CCCS(=O)(=O)c1nc(S(=O)(=O)c2ccc(C)cc2)c(NCCCN2CCOCC2)s1', '%', -1.8),
  ('CC(Oc1ccc(Cl)cc1Cl)C(=O)NCCN1CCOCC1 (stereo not drawn)', '%', -2.33),
  ('CC1CC(C)CN(C(=O)CSc2nnc(-c3ccc(F)cc3)o2)C1 (stereo not drawn)', '%', -0.28),
  ('O=C(NCCCN1CCC(Cc2ccccc2)CC1)C1CC(=O)N(C2CCCC2)C1 (stereo not drawn)', '%', -2.03),
  ('O=C(O)CCCCCN1C(=O)C(=O)/C(=C(/O)c2ccccc2)C1c1ccccc1 (stereo not drawn)', '%', 0.21),
  ('O=C(C(c1ccccc1)c1ccccc1)N1CCOCC1', '%', -1.34),
  ('O=C(NC1CCCCCCC1)c1ccc(CNc2c(N3CCOCC3)c(=O)c2=O)cc1', '%', 0.25),
  ('CC1Cc2nc(SCC(=O)N3CCCC3)n(C)c(=O)c2S1 (stereo not drawn)', '%', -3.27),
  ('COc1ccccc1N(CC(=O)N1CCCCCC1)S(C)(=O)=O', '%', -1.57),
  ('CCN1C(=O)c2ccccc2S(=O)c2ccc(C(=O)N3CCN(C(=O)c4ccco4)CC3)cc21 (stereo not drawn)', '%', -2.16),
  ('O=C1CC(c2ccc(S(=O)(=O)NC3CC3)cc2)CN1 (stereo not drawn)', '%', -2.08),
  ('Nc1ccc(C(=O)c2ccc3c(c2)OCCO3)cc1N', '%', -6.58),
  ('CCOc1ccc(-n2c(SC(C)C(=O)OC)nc3c(c2=O)SCC3)cc1 (stereo not drawn)', '%', -1.08),
  ('Cc1cc(C(=O)NCc2ccccc2)c(=O)[nH]c1C', '%', 0.83),
  ('COc1cc(C2C(C(N)=O)=C(C)Nc3nc(CCCO)nn32)cc(OC)c1OC (stereo not drawn)', '%', -0.36),
  ('CCCCSc1nc(N)c(NC(=O)c2ccco2)c(=O)[nH]1', '%', -2);
